// data source = ChEMBL document CHEMBL1201862

molecular target: Eukaryotic translation initiation factor 4E (Mus musculus, UniProt P63073); assay: eIF4E–eIF4G protein interaction inhibitors, dose response, biochemical, TR-FRET (AID 855); type: functional;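 note: potency for disrupting eIF4E binding to eIF4GI seen as loss of FRET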
Sequence (P63073 whole entry): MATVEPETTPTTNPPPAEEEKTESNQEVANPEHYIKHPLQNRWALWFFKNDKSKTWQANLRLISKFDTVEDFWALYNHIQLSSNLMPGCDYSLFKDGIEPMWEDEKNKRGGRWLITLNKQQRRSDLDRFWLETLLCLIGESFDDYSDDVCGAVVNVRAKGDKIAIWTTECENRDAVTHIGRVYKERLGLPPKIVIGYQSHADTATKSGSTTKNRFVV
Calls of active or inactive are those of the source.
# key: entry, value: IC50

[
  {
    "smiles-string": "CCN(CC)S(=O)(=O)c1ccc(NC(=O)c2cc(C(=O)OC)cc([N+](=O)[O-])c2)cc1",
    "assayed-target": "Eukaryotic translation initiation factor 4E (Mus musculus, UniProt P63073)",
    "result": "> 64 µM (inactive)"
  },
  {
    "smiles-string": "COc1ccc(NC2=NCC(=O)N2Cc2cccs2)cc1",
    "assayed-target": "Eukaryotic translation initiation factor 4E (Mus musculus, UniProt P63073)",
    "result": "> 64 µM (inactive)"
  },
  {
    "smiles-string": "Cc1ccc(Cn2nc(C)c(NC(=O)CSc3nc4c(c(C(F)(F)F)n3)CCc3ccccc3-4)c2C)cc1",
    "assayed-target": "Eukaryotic translation initiation factor 4E (Mus musculus, UniProt P63073)",
    "result": "> 64 µM (inactive)"
  },
  {
    "smiles-string": "Cc1cnc(NC(=O)c2ccc(-c3nc4ccccc4s3)o2)s1",
    "assayed-target": "Eukaryotic translation initiation factor 4E (Mus musculus, UniProt P63073)",
    "result": "> 64 µM (inactive)"
  },
  {
    "smiles-string": "O=C(O)c1cc(-c2ccccc2)n(-c2ccccc2C(=O)O)n1",
    "assayed-target": "Eukaryotic translation initiation factor 4E (Mus musculus, UniProt P63073)",
    "result": "> 64 µM (inactive)"
  }
]

In the following, a different compound is considered.
Reported IC50 for Cc1ccc(/N=C/c2nc(-c3ccc(C)cc3)oc2O)cc1 : what is it?
50 µM (inactive)

====

# key: entry, value: EC50
assay: Luminescence Cell-Based Dose Confirmation HTS to Identify Activators of 5'UTR Stem-Loop Driven Alpha-Synuclein mRNA Translation in H4 Neuroglioblastoma Cells. [Related pubchem assays: 1829 (Project Summary), 1814 (Primary HTS)]; assay type: functional
Activity calls are given as the source filed them.

[
  {
    "smiles-string": "CC(=O)Nc1ccc(S(=O)(=O)N2CCN=C2SCc2ccc(C)cc2)cc1",
    "EC50": "45 µM (active)"
  },
  {
    "smiles-string": "COc1ccc2o/c(=N/c3cc(F)ccc3F)c(C(N)=O)cc2c1",
    "EC50": "> 120 µM (not active)"
  },
  {
    "smiles-string": "O=[N+]([O-])c1ccc2c(c1)nc1n2CCN(C2CCCCC2)C1",
    "EC50": "17.6 µM (active)"
  }
]

In the following, a different compound is considered.
Reported EC50 for Cn1c(NC(=O)/C=C/c2ccccc2)cc(=O)n(C)c1=O : what is it?
14.9 µM (active)

====

target: Mu-type opioid receptor (Homo sapiens); assay type: functional, cell-based;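 note: U2OS cells with beta-arrestin recruitment to OPRM1 by beta-gal complementation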
Sequence (P35372 whole entry): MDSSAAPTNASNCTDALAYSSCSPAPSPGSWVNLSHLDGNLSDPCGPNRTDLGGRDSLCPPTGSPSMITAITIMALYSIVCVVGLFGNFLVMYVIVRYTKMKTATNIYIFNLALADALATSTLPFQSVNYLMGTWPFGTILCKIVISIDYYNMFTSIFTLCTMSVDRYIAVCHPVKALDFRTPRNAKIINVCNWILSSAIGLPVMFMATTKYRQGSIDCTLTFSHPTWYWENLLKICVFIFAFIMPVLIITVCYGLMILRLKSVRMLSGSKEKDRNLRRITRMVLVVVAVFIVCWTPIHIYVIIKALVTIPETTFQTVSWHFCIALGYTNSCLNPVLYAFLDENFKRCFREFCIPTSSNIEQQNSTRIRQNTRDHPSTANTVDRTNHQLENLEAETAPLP
Activity calls are given as the source filed them.
# key: entry, value: EC50

Examples from the recorded data:
[
  {
    "molecule": "Cc1cc(N/N=C/c2ccc(O)c(C)c2O)nc(-c2ccccc2O)n1",
    "observation-type": "EC50",
    "result": "92.5 µM (inactive)"
  },
  {
    "molecule": "O=S(=O)(c1ccc(OCC(O)CN2CCN(c3ccccc3)CC2)cc1)N1CCOCC1 (centres undefined)",
    "observation-type": "EC50",
    "result": "92.4 µM (inactive)"
  },
  {
    "molecule": "O=C(NCCN1CCN(c2ccccc2F)CC1)C1CCCN(S(=O)(=O)c2c[nH]cn2)C1 (centres undefined)",
    "observation-type": "EC50",
    "result": "92.5 µM (inactive)"
  }
]

In the following, a different molecule is considered.
Reported EC50 for CN(C)S(=O)(=O)c1ccc(Cl)c(NC(=O)CN2CCc3ccccc3C2)c1 : what is it?
92.5 µM (inactive)
